target: menin and MLL (menin, Flag tagged; biotinylated MLL1 peptide 1-46aa) (Homo sapiens, UniProt O00255); assay: biochemical; conditions: IC50, binding inhibitory activity between menin and MLL, AlphaLISA; 1 nM menin, 10 nM biotinylated MLL1 peptide
Counter-ions that a name gives are not always drawn.
Would you kindly list IC50 for each of these compounds?
Write the number in nM without appending the unit.

**Query** Data request, read-out IC50, for COc1cnc(-c2ccc(CN[C@H]3C[C@@H](O)[C@@H](N(C)c4ncnc5sc(CC(F)(F)F)cc45)C3)cc2)nc1OC [Example 97, hydrochloride]
**Result** 3.9

**Query** Data request, read-out IC50, for COc1nc(N(C)[C@H]2C[C@@H](NCc3ccc(-c4nnc(OC(F)F)cc4OC)cc3)C[C@H]2O)c2cc(CC(F)(F)F)sc2n1 [Example 110, hydrochloride]
**Result** 2.1

**Query** Data request, read-out IC50, for CNc1nc(N(C)[C@H]2C[C@@H](NCc3ccc(-c4ccc(F)c(OC)c4F)cc3)C[C@H]2O)c2cc(CC(F)(F)F)sc2n1 [Example 87, hydrochloride]
**Result** 6.6

**Query** Data request, read-out IC50, for COc1cc(-c2ccc(CN[C@H]3C[C@@H](O)[C@@H](N(C)c4ncnc5sc(CC(F)(F)F)cc45)C3)cc2)nnc1Cl [Example 84, hydrochloride]
**Result** 2.7

**Query** Data request, read-out IC50, for COc1cc(-c2ccc(CN[C@H]3C[C@@H](O)[C@@H](N(C)c4ncncc4Oc4ccc(F)cc4C(=O)N(C(C)C)C(C)C)C3)cc2)nnc1OC [Example 89, hydrochloride]
**Result** 5.6

----------
Biological target: menin and MLL (menin, Flag tagged; biotinylated MLL1 peptide 1-46aa) (Homo sapiens, UniProt O00255)
Sequence (O00255 1-610): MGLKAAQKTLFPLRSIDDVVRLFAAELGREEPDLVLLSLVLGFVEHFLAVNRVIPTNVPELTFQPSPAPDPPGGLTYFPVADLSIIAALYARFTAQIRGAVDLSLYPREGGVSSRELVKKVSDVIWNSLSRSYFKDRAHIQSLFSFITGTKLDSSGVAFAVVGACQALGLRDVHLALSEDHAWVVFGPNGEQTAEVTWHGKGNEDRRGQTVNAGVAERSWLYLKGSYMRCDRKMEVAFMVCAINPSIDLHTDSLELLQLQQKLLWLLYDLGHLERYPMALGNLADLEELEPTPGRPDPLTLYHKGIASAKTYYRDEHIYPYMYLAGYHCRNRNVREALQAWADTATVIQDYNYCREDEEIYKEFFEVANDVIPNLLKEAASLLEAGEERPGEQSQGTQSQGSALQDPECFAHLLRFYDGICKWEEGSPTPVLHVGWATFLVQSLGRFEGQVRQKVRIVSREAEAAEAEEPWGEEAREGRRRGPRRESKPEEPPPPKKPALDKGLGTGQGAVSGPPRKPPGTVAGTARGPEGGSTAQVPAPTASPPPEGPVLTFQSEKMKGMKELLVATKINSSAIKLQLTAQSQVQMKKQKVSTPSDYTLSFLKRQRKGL
Assay: biochemical
Details: cell free IC50 (nM), 1 nM menin, 10 nM biotinylated MLL1 peptide, AlphaLISA
Counter-ions that a name gives are not always drawn.
Value Kind: IC50 (nM)
Write the number in nM without appending the unit.

**Query** Data request, read-out IC50, for COc1cc(-c2ccc(CN[C@H]3C[C@@H](O)[C@@H](N(C)c4ncnc5sc(CC(F)(F)F)cc45)C3)cc2)cnc1C#N [Example 22, Hydrochloride]
**Result** 3.8

**Query** Data request, read-out IC50, for O=C1CCC(c2ccc(CN[C@H]3CCC[C@@H](Nc4ncnc5sc(CC(F)(F)F)cc45)C3)cc2)N1 (mixture of isomers) [Example 39]
**Result** 2070

**Query** Data request, read-out IC50, for CN(c1nc(N)nc2sc(CC(F)(F)F)cc12)[C@H]1C[C@@H](NCc2ccc(-n3ccnc3)cc2)C[C@H]1O [Example 21, Hydrochloride]
**Result** 7

**Query** Data request, read-out IC50, for CNc1nc(N(C)[C@H]2C[C@@H](NCc3ccc(Nc4cccnc4)cc3)C[C@@H]2O)c2cc(CC(F)(F)F)sc2n1 [Example 54, hydrochloride]
**Result** 1

**Query** Data request, read-out IC50, for CN(c1ncnc2sc(CC(F)(F)F)cc12)[C@@H]1CC[C@H](NCc2ccc(S(=O)(=O)N3CCCC(O)C3)cc2)C1 (mixture of isomers) [Example 57]
**Result** 61.2

**Query** Data request, read-out IC50, for COc1cc(-c2ccc(CN[C@H]3C[C@@H](O)[C@@H](N(C)c4ncnc5sc(CC(F)(F)F)cc45)C3)cc2)cnc1C.Cl [Example 60, hydrochloride]
**Result** 2.4

----------
molecular target: menin and MLL (menin, Flag tagged; biotinylated MLL1 peptide 1-46aa) (Homo sapiens); assay: biochemical; conditions: cell free IC50 (nM), 1 nM menin, 10 nM biotinylated MLL1 peptide, AlphaLISA
Counter-ions that a name gives are not always drawn.
Lab note - cut at 300 nM for IC50: Yes if strictly below, No if not.

**Query** Confirm or reject: IC50 of COCc1cc2c(N(C)[C@@H]3CC[C@H](NCc4ccc(-c5cncc(OC)c5)cc4)C3)ncnc2s1 [Example 47, hydrochloride] lies strictly below 300 nM
**Result** Yes

**Query** Confirm or reject: IC50 of FC(F)(F)Cc1cc2c(N[C@@H]3CCC[C@H](NCc4ccc(-c5ncco5)cc4)C3)ncnc2s1 [Example 35, hydrochloride] lies strictly below 300 nM
**Result** No

**Query** Confirm or reject: IC50 of FC(F)(F)Cc1cc2c(N[C@@H]3CCC[C@H](NCc4ccc(-c5ccncc5)cc4)C3)ncnc2s1 [Example 40, hydrochloride] lies strictly below 300 nM
**Result** Yes

**Query** Confirm or reject: IC50 of COc1cncc(-c2ccc(CN[C@H]3CC[C@@H](N(C)c4nc(C)nc5sc(CC(F)(F)F)cc45)C3)cn2)c1 [Example 46, hydrochloride] lies strictly below 300 nM
**Result** Yes

**Query** Confirm or reject: IC50 of `CN(c1ncnc2cc(CC(F)(F)F)sc12)[C@@H]1CC[C@H](NCc2ccc3[nH]c(C#N)cc3c2)C1` lies strictly below 300 nM
**Result** Yes

**Query** Confirm or reject: IC50 of N#Cc1cc2cc(CN[C@@H]3CC[C@@H](Nc4ncnc5sc(CC(F)(F)F)cc45)C3)ccc2[nH]1 [Example 1, Hydrochloride] lies strictly below 300 nM
**Result** No

**Query** Confirm or reject: IC50 of COc1cncc(Nc2ccc(CN[C@H]3CC[C@@H](N(C)c4ncnc5sc(CC(F)(F)F)cc45)C3)cc2)c1 [Example 8, Hydrochloride] lies strictly below 300 nM
**Result** Yes

**Query** Confirm or reject: IC50 of CNc1nc(N(C)[C@H]2C[C@@H](NCc3ccc(-c4cnc(OC)c(OC)c4)cc3)C[C@@H]2OC)c2cc(CC(F)(F)F)sc2n1 [Example 24, Hydrochloride] lies strictly below 300 nM
**Result** Yes

**Query** Confirm or reject: IC50 of COc1nc(N(C)[C@H]2C[C@@H](NCc3ccc(-c4cc(OC)c(OC)nn4)cc3)C[C@H]2O)c2cc(CC(F)(F)F)sc2n1 [Example 27, Hydrochloride] lies strictly below 300 nM
**Result** Yes

**Query** Confirm or reject: IC50 of O=C1CCCN1Cc1ccc(CN[C@H]2CCC[C@@H](Nc3ncnc4sc(CC(F)(F)F)cc34)C2)cc1 [Example 38, hydrochloride] lies strictly below 300 nM
**Result** No

**Query** Confirm or reject: IC50 of Cc1c(CN[C@H]2CC[C@@H](N(C)c3ncnc4sc(CC(F)(F)F)cc34)C2)ccc2c1cc(C#N)n2Cc1cn[nH]c1 [Example 2, Hydrochloride] lies strictly below 300 nM
**Result** Yes

**Query** Confirm or reject: IC50 of COc1cncc(-c2ccc(CN[C@@H]3C[C@H](N(C)c4ncnc5sc(CC(F)(F)F)cc45)[C@H](O)[C@@H]3O)cc2)c1 [Example 20A, Hydrochloride] lies strictly below 300 nM
**Result** Yes

----------
target: menin and MLL (menin, Flag tagged; biotinylated MLL1 peptide 1-46aa) (Homo sapiens, UniProt O00255); test: biochemical; settings: IC50, binding inhibitory activity between menin and MLL, AlphaLISA; 1 nM menin, 10 nM biotinylated MLL1 peptide
Where a name gives a salt, the structure may show the parent alone.
Value Kind: pIC50
Scale: negative log10 of molar concentration, which is what pIC50 denotes.

**Query** Data request, read-out pIC50, for COc1cc(-c2ccc(CN[C@H]3C[C@@H](O)[C@@H](N(C)c4ncncc4Oc4ccc(F)cc4-c4ccccc4C(C)C)C3)cc2)nnc1OC [Example 101, hydrochloride]
**Result** 8.57

**Query** Data request, read-out pIC50, for COc1nc(N(C)[C@H]2C[C@@H](NCC3CCN(c4cc(OC)c(OC)nn4)CC3)C[C@H]2O)c2cc(CC(F)(F)F)sc2n1 [Example 115, hydrochloride]
**Result** 7.96

**Query** Data request, read-out pIC50, for CNc1nc(N(C)[C@H]2C[C@@H](NCc3ccc(-c4cnc(OC)c(OC)c4)cc3)C[C@H]2O)c2cc(CC(F)(F)F)sc2n1 [Example 73, hydrochloride]
**Result** 8.19

**Query** Data request, read-out pIC50, for COc1cc(-c2ccc(CN[C@H]3C[C@@H](O)[C@@H](N(C)c4ncnc5sc(CC(F)(F)F)cc45)C3)cc2)cnc1OC.Cl [Example 67, hydrochloride]
**Result** 8.68

**Query** Data request, read-out pIC50, for CNc1ncc(-c2ccc(CN[C@H]3C[C@@H](O)[C@@H](N(C)c4ncnc5sc(CC(F)(F)F)cc45)C3)cc2)cc1OC [Example 92, hydrochloride]
**Result** 8.82

**Query** Data request, read-out pIC50, for COc1cc(-c2ccc(CN[C@H]3C[C@@H](O)[C@@H](N(C)c4ncncc4Oc4ccc(F)cc4-c4cncnc4C(C)C)C3)cc2)nnc1OC [Example 100, hydrochloride]
**Result** 8.60

**Query** Data request, read-out pIC50, for COc1nc(N(C)C2CC(NCC3CCC(c4cc(OC)c(OC)nn4)CC3)CC2O)c2cc(CC(F)(F)F)sc2n1 (single isomer, unassigned) [Example 128B, Hydrochloride]
**Result** 8.18

**Query** Data request, read-out pIC50, for COc1nc(N(C)[C@H]2C[C@@H](NCc3ccc(-c4cc(OC)c(OC5CCN(S(C)(=O)=O)CC5)nn4)cc3)C[C@H]2O)c2cc(CC(F)(F)F)sc2n1 [Example 118, hydrochloride]
**Result** 9.00

**Query** Data request, read-out pIC50, for `[2H]C([2H])([2H])N(c1ncc(-c2ccc(CN[C@H]3C[C@@H](O)[C@@H](N(C)c4ncnc5sc(CC(F)(F)F)cc45)C3)cc2)cc1OC)C([2H])([2H])[2H]`
**Result** 8.77

**Query** Data request, read-out pIC50, for COc1cc(-c2ccc(CN[C@H]3C[C@@H](O)[C@@H](N(C)c4ncnc5sc(CC(F)(F)F)cc45)C3)c(F)c2)cnc1OC [Example 76, hydrochloride]
**Result** 8.07

**Query** Data request, read-out pIC50, for COc1nc(N(C)[C@H]2C[C@@H](NCc3ccc(-c4nn(C(F)F)c(=O)cc4OC)cc3)C[C@H]2O)c2cc(CC(F)(F)F)sc2n1 [Example 111, hydrochloride]
**Result** 7.37

**Query** Data request, read-out pIC50, for COc1ncc(-c2ccc(CN[C@H]3CC[C@@H](N(C)c4ncnc5sc(CC(F)(F)F)cc45)C3)cc2)s1 [Example 130, Hydrochloride]
**Result** 8.19

**Query** Data request, read-out pIC50, for CN(c1ncnc2sc(CC(F)(F)F)cc12)[C@H]1C[C@@H](NCc2ccc(-c3cncc4c3cnn4C)cc2)C[C@H]1O [Example 72, hydrochloride]
**Result** 7.97

**Query** Data request, read-out pIC50, for CN(c1ncnc2sc(CC(F)(F)F)cc12)[C@H]1C[C@@H](NCc2cccc(-c3cccnc3)c2)C[C@H]1O [Example 124, hydrochloride]
**Result** 6.74

**Query** Data request, read-out pIC50, for CN(c1ncnc2sc(CC(F)(F)F)cc12)[C@H]1C[C@@H](NCc2ccc(-c3cnc(Cl)c4cc[nH]c34)cc2)C[C@H]1O [Example 70, hydrochloride]
**Result** 8.42

**Query** Data request, read-out pIC50, for CNc1nc(N(C)[C@H]2C[C@@H](NCc3ccc(-c4cccc(S(=O)(=O)N(C)C)c4)cc3)C[C@H]2O)c2cc(CC(F)(F)F)sc2n1 [Example 69, hydrochloride]
**Result** 8.55

**Query** Data request, read-out pIC50, for COc1cc(-c2ccc(CN[C@H]3C[C@@H](O)[C@@H](N(C)c4ncnc5sc(CC(F)(F)F)cc45)C3)cc2)cnc1C(F)(F)F [Example 88, hydrochloride]
**Result** 7.56
